assay: in vitro; design: species or system HB2, CCD841; conditions: human, hek293 cells
viability at 48 h, 10 µM values for the compounds below.
I only need the number, in %, no unit after it.

Known viability at 48 h, 10 µM results, listed for orientation:
- COMPOUND: "C=CC(=O)Nc1ccc(Cl)c(C#N)c1"
  viability at 48 h, 10 µM / %: 59.5
- COMPOUND: "O=C(CCl)Nc1ccccc1"
  viability at 48 h, 10 µM / %: 56.1
- COMPOUND: "O=C(CCl)N1CCN(S(=O)(=O)c2c(F)cccc2F)CC1"
  viability at 48 h, 10 µM / %: 11.1
- COMPOUND: "COc1ccc(NC(=O)NC(=O)CCl)cc1"
  viability at 48 h, 10 µM / %: 65
- COMPOUND: "CC(NC(=O)CCl)c1ccccc1Br (centres unmarked)"
  viability at 48 h, 10 µM / %: 27.3
- COMPOUND: "C=CC(=O)NC(O)C(Cl)(Cl)Cl (centres unmarked)"
  viability at 48 h, 10 µM / %: 94.7
- COMPOUND: "C=CC(=O)NCc1cccc(C(F)(F)F)c1"
  viability at 48 h, 10 µM / %: 82.3
- COMPOUND: "COC(=O)CNC(=O)CCl"
  viability at 48 h, 10 µM / %: 112
- COMPOUND: "C#Cc1cccc(NC(=O)CCl)c1"
  viability at 48 h, 10 µM / %: 87
- COMPOUND: "C=CC(=O)N1CCCC2(CNC(=O)O2)C1 (centres unmarked)"
  viability at 48 h, 10 µM / %: 102

Tell me its viability at 48 h, 10 µM given COc1ccc2c(c1)CCCN2C(=O)CCl as the entry.
1.8

Give reported viability at 48 h, 10 µM value for O=C(CCl)NNC(=O)c1cc2c(s1)CCCC2
52.6

Determine its reported viability at 48 h, 10 µM: O=C(CCl)Nc1ccc2c(c1)OCCO2
8.2
